# systemTested: UniProt:Q72547
# protocolNotes: Inhibition of RNase H function of HIV1 reverse transcriptase using DNA/RNA hybrid as substrate at 10 uM by fluorescence spectrometer analysis
Please respond with reported inhibition for every item in the list.
Give the quantity in %, number only.

[in] Dear colleague, I am looking for the recorded inhibition of the following compound: CCOC(=O)/C(O)=C/C(=O)c1cn(Cc2ccccc2F)c2cc(Cl)ccc2c1=O
[out] 2.8

[in] Dear colleague, I am looking for the recorded inhibition of the following compound: CCOC(=O)/C(O)=C/C(=O)c1cn(Cc2ccc(Cl)cc2Cl)c2ccccc2c1=O
[out] 51

[in] Dear colleague, I am looking for the recorded inhibition of the following compound: O=C(O)/C(O)=C/C(=O)c1cn(CCCCc2ccccc2)c2ccccc2c1=O
[out] 33

[in] Dear colleague, I am looking for the recorded inhibition of the following compound: O=C(O)/C(O)=C/C(=O)c1cn(Cc2cccc(F)c2)c2ccccc2c1=O
[out] 2.4

[in] Dear colleague, I am looking for the recorded inhibition of the following compound: CCOC(=O)/C(O)=C/C(=O)c1cn(Cc2cccc(Cl)c2F)c2ccccc2c1=O
[out] 21

[in] Dear colleague, I am looking for the recorded inhibition of the following compound: CCOC(=O)/C(O)=C/C(=O)c1cn(Cc2ccc(O)cc2)c2ccccc2c1=O
[out] 26

[in] Dear colleague, I am looking for the recorded inhibition of the following compound: CCOC(=O)/C(O)=C/C(=O)c1cn(Cc2c(Cl)cccc2Cl)c2ccccc2c1=O
[out] 55

[in] Dear colleague, I am looking for the recorded inhibition of the following compound: CCOC(=O)/C(O)=C/C(=O)c1cn(Cc2ccc(OC)cc2)c2ccccc2c1=O
[out] 10

[in] Dear colleague, I am looking for the recorded inhibition of the following compound: CCOC(=O)/C(O)=C/C(=O)c1cn(Cc2ccc(F)c(F)c2)c2ccccc2c1=O
[out] 24

[in] Dear colleague, I am looking for the recorded inhibition of the following compound: CCOC(=O)/C(O)=C/C(=O)c1cn(Cc2ccc3ccccc3n2)c2ccccc2c1=O
[out] 4.4

[in] Dear colleague, I am looking for the recorded inhibition of the following compound: CCOC(=O)/C(O)=C/C(=O)c1cn(Cc2ccccc2)c2ccccc2c1=O
[out] -3.3

[in] Dear colleague, I am looking for the recorded inhibition of the following compound: CCOC(=O)/C(O)=C/C(=O)c1cn(Cc2ccc([N+](=O)[O-])cc2)c2ccccc2c1=O
[out] 31.9

[in] Dear colleague, I am looking for the recorded inhibition of the following compound: CCOC(=O)/C(O)=C/C(=O)c1cn(Cc2ccc3ccccc3c2)c2ccccc2c1=O
[out] 29.7

[in] Dear colleague, I am looking for the recorded inhibition of the following compound: O=C(O)/C(O)=C/C(=O)c1cn(Cc2cc(F)cc(F)c2)c2ccccc2c1=O
[out] 30

[in] Dear colleague, I am looking for the recorded inhibition of the following compound: CCOC(=O)/C(O)=C/C(=O)c1cn(Cc2cc(F)ccc2F)c2ccccc2c1=O
[out] 30

[in] Dear colleague, I am looking for the recorded inhibition of the following compound: O=C(O)/C(O)=C/C(=O)c1cn(Cc2ccc3ccccc3c2)c2ccccc2c1=O
[out] 40.7

====

Quick record: pIC50, Human immunodeficiency virus type 1 integrase (Human immunodeficiency virus 1).
The value called pIC50 is obtained by taking minus log10 of the concentration in mol/L.

[in] Dear colleague, I am looking for the recorded pIC50 of the following compound: CCOC(=O)/C(O)=C/C(=O)c1cn(Cc2ccc(F)c(F)c2)c2ccccc2c1=O
[out] 5.26

[in] Dear colleague, I am looking for the recorded pIC50 of the following compound: O=C(O)/C(O)=C/C(=O)c1cn(Cc2ccncc2)c2ccccc2c1=O
[out] 4.80

[in] Dear colleague, I am looking for the recorded pIC50 of the following compound: CCOC(=O)/C(O)=C/C(=O)c1cn(Cc2ccc3ccccc3c2)c2ccccc2c1=O
[out] 4.49

[in] Dear colleague, I am looking for the recorded pIC50 of the following compound: CCOC(=O)/C(O)=C/C(=O)c1cn(Cc2cc(F)ccc2F)c2ccccc2c1=O
[out] 5.43

[in] Dear colleague, I am looking for the recorded pIC50 of the following compound: O=C(O)/C(O)=C/C(=O)c1cn(Cc2c(Cl)cccc2Cl)c2ccccc2c1=O
[out] 6.57

[in] Dear colleague, I am looking for the recorded pIC50 of the following compound: CCOC(=O)/C(O)=C/C(=O)c1cn(Cc2ccncc2)c2ccccc2c1=O
[out] 4.85

[in] Dear colleague, I am looking for the recorded pIC50 of the following compound: O=C(O)/C(O)=C/C(=O)c1cn(Cc2ccccc2F)c2c(Cl)cccc2c1=O
[out] 6.89

[in] Dear colleague, I am looking for the recorded pIC50 of the following compound: CCOC(=O)/C(O)=C/C(=O)c1cn(Cc2c(F)cccc2F)c2ccccc2c1=O
[out] 6.60

[in] Dear colleague, I am looking for the recorded pIC50 of the following compound: CCOC(=O)/C(O)=C/C(=O)c1cn(Cc2ccccc2OC)c2ccccc2c1=O
[out] 5.85

[in] Dear colleague, I am looking for the recorded pIC50 of the following compound: CCOC(=O)/C(O)=C/C(=O)c1cn(Cc2ccc(O)cc2)c2ccccc2c1=O
[out] 5.85

[in] Dear colleague, I am looking for the recorded pIC50 of the following compound: O=C(O)/C(O)=C/C(=O)c1cn(Cc2ccccc2F)c2ccccc2c1=O
[out] 7.80

[in] Dear colleague, I am looking for the recorded pIC50 of the following compound: CCOC(=O)/C(O)=C/C(=O)c1cn(Cc2ccc(F)c(Cl)c2)c2c(Cl)cccc2c1=O
[out] 4.60

[in] Dear colleague, I am looking for the recorded pIC50 of the following compound: CCOC(=O)/C(O)=C/C(=O)c1cn(Cc2c(Cl)cccc2Cl)c2ccccc2c1=O
[out] 4.49

[in] Dear colleague, I am looking for the recorded pIC50 of the following compound: O=C(O)/C(O)=C/C(=O)c1cn(Cc2ccc(F)c(Cl)c2)c2c(Cl)cccc2c1=O
[out] 7.02

[in] Dear colleague, I am looking for the recorded pIC50 of the following compound: O=C(O)/C(O)=C/C(=O)c1cn(Cc2ccc(F)c(Cl)c2)c2ccccc2c1=O
[out] 6.72

[in] Dear colleague, I am looking for the recorded pIC50 of the following compound: CCOC(=O)/C(O)=C/C(=O)c1cn(Cc2ccc(F)cc2F)c2ccccc2c1=O
[out] 5.66

[in] Dear colleague, I am looking for the recorded pIC50 of the following compound: Cc1cc(C)cc(Cn2cc(C(=O)/C=C(\O)C(=O)O)c(=O)c3ccccc32)c1
[out] 7.30

[in] Dear colleague, I am looking for the recorded pIC50 of the following compound: CCOC(=O)/C(O)=C/C(=O)c1cn(Cc2ccccc2)c2ccccc2c1=O
[out] 6.15

[in] Dear colleague, I am looking for the recorded pIC50 of the following compound: CCOC(=O)/C(O)=C/C(=O)c1cn(Cc2ccc3ccccc3n2)c2ccccc2c1=O
[out] 5.46

[in] Dear colleague, I am looking for the recorded pIC50 of the following compound: O=C(O)/C(O)=C/C(=O)c1cn(Cc2cccc(F)c2)c2ccccc2c1=O
[out] 7.82

[in] Dear colleague, I am looking for the recorded pIC50 of the following compound: CCOC(=O)/C(O)=C/C(=O)c1cn(Cc2cccc(F)c2)c2ccccc2c1=O
[out] 5.31

[in] Dear colleague, I am looking for the recorded pIC50 of the following compound: O=C(O)/C(O)=C/C(=O)c1cn(Cc2cc(F)cc(F)c2)c2ccccc2c1=O
[out] 6.66

[in] Dear colleague, I am looking for the recorded pIC50 of the following compound: O=C(O)/C(O)=C/C(=O)c1cn(Cc2ccc(F)c(F)c2)c2ccccc2c1=O
[out] 6.96

[in] Dear colleague, I am looking for the recorded pIC50 of the following compound: O=C(O)/C(O)=C/C(=O)c1cn(Cc2ccc(Cl)cc2)c2ccccc2c1=O
[out] 6.27

[in] Dear colleague, I am looking for the recorded pIC50 of the following compound: CCOC(=O)/C(O)=C/C(=O)c1cn(Cc2ccccc2F)c2ccccc2c1=O
[out] 6.55

[in] Dear colleague, I am looking for the recorded pIC50 of the following compound: CCOC(=O)/C(O)=C/C(=O)c1cn(Cc2cccc(Cl)c2F)c2ccccc2c1=O
[out] 5.97

[in] Dear colleague, I am looking for the recorded pIC50 of the following compound: O=C(O)/C(O)=C/C(=O)c1cn(Cc2ccc(F)cc2F)c2ccccc2c1=O
[out] 8.00

[in] Dear colleague, I am looking for the recorded pIC50 of the following compound: CCOC(=O)/C(O)=C/C(=O)c1cn(Cc2ccc(F)c(Cl)c2)c2ccccc2c1=O
[out] 5.51

[in] Dear colleague, I am looking for the recorded pIC50 of the following compound: O=C(O)/C(O)=C/C(=O)c1cn(Cc2ccc3ccccc3n2)c2ccccc2c1=O
[out] 6.40

[in] Dear colleague, I am looking for the recorded pIC50 of the following compound: O=C(O)/C(O)=C/C(=O)c1cn(Cc2cccc(Cl)c2F)c2ccccc2c1=O
[out] 7.74

[in] Dear colleague, I am looking for the recorded pIC50 of the following compound: CCOC(=O)/C(O)=C/C(=O)c1cn(CCCCc2ccccc2)c2ccccc2c1=O
[out] 3.92

[in] Dear colleague, I am looking for the recorded pIC50 of the following compound: CCOC(=O)/C(O)=C/C(=O)c1cn(Cc2cc(C)cc(C)c2)c2ccccc2c1=O
[out] 5.89

[in] Dear colleague, I am looking for the recorded pIC50 of the following compound: O=C(O)/C(O)=C/C(=O)c1cn(Cc2ccc([N+](=O)[O-])cc2)c2ccccc2c1=O
[out] 6.19

[in] Dear colleague, I am looking for the recorded pIC50 of the following compound: COc1cccc(Cn2cc(C(=O)/C=C(\O)C(=O)O)c(=O)c3ccccc32)c1
[out] 6.85

[in] Dear colleague, I am looking for the recorded pIC50 of the following compound: CCOC(=O)/C(O)=C/C(=O)c1cn(Cc2cccc(OC)c2)c2ccccc2c1=O
[out] 4.80

[in] Dear colleague, I am looking for the recorded pIC50 of the following compound: COc1ccc(Cn2cc(C(=O)/C=C(\O)C(=O)O)c(=O)c3ccccc32)cc1
[out] 6.29
